// endpoint MIC / system Escherichia coli ATCC 2592
Param answer (str): number followed by unit.

Q) I am curious: what MIC value has been reported for O=c1oc2ccc(Cl)cc2c(O)c1S(=O)(=O)Nc1ccc(O)cc1 [8c] ?
A) 250 µg/mL

Q) Same question, COc1ccc(/C=C/C(=O)c2ccc(NS(=O)(=O)c3c(O)c4cc(Cl)ccc4oc3=O)cc2)cc1 [9e] this time
A) 500 µg/mL

Q) Same question, Cc1ccc2oc(=O)c(S(=O)(=O)Nc3ccc(C(=O)/C=C/c4ccc(Cl)cc4)cc3)c(O)c2c1 [9d] this time
A) 250 µg/mL

Q) Same question, Cc1ccc2oc(=O)c(S(=O)(=O)Nc3ccc(S(=O)(=O)Nc4nccs4)cc3)c(O)c2c1 [7f] this time
A) 500 µg/mL

Q) Same question, O=c1oc2ccc(Cl)cc2c(O)c1S(=O)(=O)Nc1ccccc1 [8a] this time
A) 500 µg/mL

Q) Same question, NS(=O)(=O)c1ccc(NS(=O)(=O)c2c(O)c3cc(Cl)ccc3oc2=O)cc1 [7a] this time
A) 250 µg/mL

Q) Same question, O=c1oc2ccc(Cl)cc2c(O)c1S(=O)(=O)Nc1ccc(S(=O)(=O)Nc2nccs2)cc1 [7e] this time
A) 500 µg/mL

Q) Same question, Cc1ccc2oc(=O)c(S(=O)(=O)Nc3ccc(S(=O)(=O)Nc4ncccn4)cc3)c(O)c2c1 [7d] this time
A) 125 µg/mL

Q) Same question, COc1ccc(/C=C/C(=O)c2ccc(NS(=O)(=O)c3c(O)c4cc(C)ccc4oc3=O)cc2)cc1 [9f] this time
A) 250 µg/mL

Q) Same question, Cc1ccc2oc(=O)c(S(=O)(=O)Nc3ccc(O)cc3)c(O)c2c1 [8d] this time
A) 125 µg/mL

Q) Same question, Cc1ccc2oc(=O)c3c(c2c1)OC(/N=C/c1ccccc1)=C(C#N)C3c1ccc([N+](=O)[O-])cc1 (racemic) [5a] this time
A) 250 µg/mL

Q) Same question, Cc1ccc2oc(=O)c3c(c2c1)OC(N)=C(C#N)C3c1ccc([N+](=O)[O-])cc1 (racemic) [2a] this time
A) 1000 µg/mL

###

tested on: trypsin; experiment: Proteinase-inhibitory activity; type: biochemical; settings: 250 µg/mL; mean ± SD (n = 3)
Exercise: for every item that follows, state its recorded % Inhibition (proteinase).
Param answer (str): number followed by unit.

Q) I am curious: what % Inhibition (proteinase) value has been reported for Cc1ccc2oc(=O)c(S(=O)(=O)Nc3ccc(S(N)(=O)=O)cc3)c(O)c2c1 ?
A) 5.93 ± 2.11%

Q) Same question, O=C(/C=C/c1ccc([N+](=O)[O-])cc1)c1ccc(NS(=O)(=O)c2c(O)c3cc(Cl)ccc3oc2=O)cc1 this time
A) 62.14 ± 4.87%

Q) Same question, Cc1ccc2oc(=O)c3c(c2c1)OC(N)=C(C(N)=O)C3c1ccc([N+](=O)[O-])cc1 (racemic) this time
A) 79.72 ± 4.51%

Q) Same question, CC(=O)Oc1ccccc1C(=O)O [Aspirin, reference compound] this time
A) 45.83 ± 4.21%

Q) Same question, O=c1oc2ccc(Cl)cc2c(O)c1S(=O)(=O)Nc1ccc(S(=O)(=O)Nc2nccs2)cc1 this time
A) 19.8 ± 2.54%

Q) Same question, CC(=O)c1ccc(NS(=O)(=O)c2c(O)c3cc(Cl)ccc3oc2=O)cc1 this time
A) 18.5 ± 3.47%

Q) Same question, Cc1ccc2oc(=O)c(S(=O)(=O)Nc3ccccc3)c(O)c2c1 this time
A) 14.3 ± 2.21%

Q) Same question, Cc1ccc2oc(=O)c(S(=O)(=O)Nc3ccc(C(=O)/C=C/c4ccc(Cl)cc4)cc3)c(O)c2c1 this time
A) 31.88 ± 3.82%

Provenance of the data: paper PMC7397269
